molecular target: Neu5Gc(a2-6)Gal(b1-4)GlcNAc; test: glycan array binding signal (z-score within array); higher = stronger binding; details: glycan notation: IUPAC condensed, linker removed
Shown is part of a subset that was picked to be rich in the strongest signals.
Item-by-item account of glycan array binding signal (z-score)
Note: the reply should be a number with no unit written.

The value of glycan array binding signal (z-score) measured for the binder SAG3 (Toxoplasma gondii), Q9BJ39 (protein) MQLWRRRAAGPASLGRQSLPLGCFFAAFGLCVLSAILGTGERGLFVAAGNSRRKITYFGTLTQKAPNWYRCSSTRAKEEVVGHVTLNKEHPDMTIECVDDGLGGEFLPLEGARSSYPRVCHIDAKDQDDCERNRGFLTDYIPGAKQYWYKIEKVEQNGEQSVLYKFTVPWILLPPAKQRYKVGCRYPNHEYCFVEVTVEPTPPMVEGKRVTCGYSESGPVNLEVDLSKNANFIEIRCGEQHHPQPSTYTLQYCSGDSVDPQKCSPQSLTNIFYDYSSSWWKGKLNGPDGATLTIPPGGFPEEDKSFLVGCSLTVDGPPFCNVKVRVAGNPRKWERGGGGHPGSGGLQPGTDGETQAGTGSSAGASSRMASVALAFLLGLLVHVAA turned out to be -0.387

The value of glycan array binding signal (z-score) measured for the binder CBP21 (Serratia marcescens), O83009 (protein) MNKTSRTLLSLGLLSAAMFGVSQQANAHGYVESPASRAYQCKLQLNTQCGSVQYEPQSVEGLKGFPQAGPADGHIASADKSTFFELDQQTPTRWNKLNLKTGPNSFTWKLTARHSTTSWRYFITKPNWDASQPLTRASFDLTPFCQFNDGGAIPAAQVTHQCNIPADRSGSHVILAVWDIADTANAFYQAIDVNLSK turned out to be 0.755

The value of glycan array binding signal (z-score) measured for the binder CBM40 CPF071 (Clostridium perfringens) (protein) MAHHHHHHVGTGSNDDDDKSPDPMLSSLGEYKDINLESSNASNITYDLEKYKNLDEGTIVVRFNSKDSKIQSLLGISNSKTKNGYFNFYVTNSRVGFELRNQKNEGNTQNGTENLVHMYKDVALNDGDNTVALKIEKNKGYKLFLNGKMIKEVKDTNTKFLNNIENLDSAFIGKTNRYGQSNEYNFKGNIGFMNIYNEPLGDDYLLSKTGETK turned out to be -0.336

These entries and their values trace back to the supplement of paper PMC8728848.
